Property: kon; scope: individual binders
TARGET_SYSTEM: T1, human PDGFRb.hFc (human)
T1 construct: Soluble dimeric construct with human Fc; also called hPDGFRb.hFc
ASSAY: SPR, mAb captured, 37 C
ATTRIBUTE_MEASURED: kon (M⁻¹ s⁻¹)

BINDER	NUMERIC_VALUE
H4H3094P (antibody, human IgG4, V domains shown, also called H4H3394P) VH: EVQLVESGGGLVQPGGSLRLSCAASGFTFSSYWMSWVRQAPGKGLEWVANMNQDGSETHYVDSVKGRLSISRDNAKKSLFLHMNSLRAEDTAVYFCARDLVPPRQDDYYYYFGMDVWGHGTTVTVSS VL: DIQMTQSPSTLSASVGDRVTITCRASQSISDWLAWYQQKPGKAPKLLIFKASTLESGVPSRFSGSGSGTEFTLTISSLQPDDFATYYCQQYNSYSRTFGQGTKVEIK	283000
H4H3104S (antibody, human IgG4, V domains shown, human IgG4 Fc (H4H prefix)) VH: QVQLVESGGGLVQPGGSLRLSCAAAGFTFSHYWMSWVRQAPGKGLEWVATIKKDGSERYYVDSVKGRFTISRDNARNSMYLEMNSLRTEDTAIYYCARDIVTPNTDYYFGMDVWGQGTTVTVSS VL: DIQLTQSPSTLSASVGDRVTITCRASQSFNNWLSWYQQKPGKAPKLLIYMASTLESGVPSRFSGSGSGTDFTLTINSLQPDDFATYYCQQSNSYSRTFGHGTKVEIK	936000
H4H3102S (antibody, human IgG4, V domains shown, human IgG4 Fc (H4H prefix)) VH: EVQLVESGGDLVHPGRSLRLSCVASGFTFDDYTMHWVRQAPGKGLEWVSAISWNGDNINYAGSVKGRFTISRDNAKNSLYLEMNSLRVEDTAFYYCAKGRGFSFGFNYLGQGTMVTVSS VL: AIRMTQSPSSLSASVGDRVTITCRASQDISNYLAWFQQQPGKAPKSLIYATSSLNSGVPSKFSGSGSGTDFTLTISSLQPEDFATYYCQQYKSYPLTFGGGTKVEIK	420000
